- Test system: A549-GM130-SQSTM1
- PROTOCOL SUMMARY: lowest phenotypically active concentration; higher = less potent
- TEST PARAMETERS: treatment time: 24 h
Structures can show the parent of a compound that is named as a salt.
Listed here are compounds together with their documented lowest phenotypically active concentration.
ENDPOINT NAME: lowest phenotypically active concentration

COMPOUND: CC[C@H](CO)Nc1nc(Nc2cccc(-c3ccccn3)c2)c2ncn(C(C)C)c2n1 [(R)-DRF053 dihydrochloride]
MEASUREMENT TARGET: A549-GM130-SQSTM1
RESULT: 9 µM

COMPOUND: Cc1cc2c(F)c(Oc3ncnn4cc(OC[C@@H](C)OC(=O)[C@H](C)N)c(C)c34)ccc2[nH]1 [brivanib-alaninate]
MEASUREMENT TARGET: A549-GM130-SQSTM1
RESULT: 9 µM

COMPOUND: COc1cc(C(=O)N2CCC(N3CCN(C)CC3)CC2)ccc1Nc1ncc2c(n1)N(C)c1ccccc1C(=O)N2C
MEASUREMENT TARGET: A549-GM130-SQSTM1
RESULT: 3 µM

COMPOUND: COc1ccc(N2C(=O)CSC2c2cccc(Br)c2)c(OC)c1 (stereo not drawn)
MEASUREMENT TARGET: A549-GM130-SQSTM1
RESULT: 9 µM

COMPOUND: CN1CCC(CN2c3ccccc3Sc3ccccc32)C1 (stereo not drawn)
MEASUREMENT TARGET: A549-GM130-SQSTM1
RESULT: 3 µM

COMPOUND: C#Cc1cccc(Nc2ncnc3cc(OCCOC)c(OCCOC)cc23)c1
MEASUREMENT TARGET: A549-GM130-SQSTM1
RESULT: 3 µM

COMPOUND: CCCC(=O)O[C@]1(C(=O)COC(C)=O)CC[C@H]2[C@@H]3C[C@H](F)C4=CC(=O)C=C[C@]4(C)[C@@]3(F)[C@@H](O)C[C@@]21C [difluprednate]
MEASUREMENT TARGET: A549-GM130-SQSTM1
RESULT: ≤ 0.3 µM

COMPOUND: CC(=O)NCC(=O)N1[C@@H]2CC[C@H]1c1ccc(Nc3ncc(C(F)(F)F)c(NC4CCC4)n3)cc12
MEASUREMENT TARGET: A549-GM130-SQSTM1
RESULT: ≤ 0.3 µM

COMPOUND: C[C@H]1[C@H]2CC[C@H]3[C@@H]4CC=C5C[C@@H](N(C)C)CC[C@]5(C)[C@H]4CC[C@]23CN1C
MEASUREMENT TARGET: A549-GM130-SQSTM1
RESULT: 1 µM

COMPOUND: CC(C)(C)Nc1nc(Nc2ccc(C(N)=O)cc2)cc(N)c1C#N
MEASUREMENT TARGET: A549-GM130-SQSTM1
RESULT: 3 µM

COMPOUND: NC(=O)Nc1cc(-c2cccc(F)c2)sc1C(=O)N[C@H]1CCCNC1 [AZD 7762 hydrochloride]
MEASUREMENT TARGET: A549-GM130-SQSTM1
RESULT: ≤ 0.3 µM

COMPOUND: O=C1NC(=O)[C@@H](c2cn3c4c(cccc24)CCC3)[C@@H]1c1c[nH]c2ccccc12 [tivantinib]
MEASUREMENT TARGET: A549-GM130-SQSTM1
RESULT: 1 µM

COMPOUND: Oc1ccc(-c2nc(-c3ccc(F)cc3)c(-c3ccncc3)[nH]2)cc1
MEASUREMENT TARGET: A549-GM130-SQSTM1
RESULT: 9 µM

COMPOUND: O=C(Nc1c[nH]nc1-c1nc2cc(CN3CCOCC3)ccc2[nH]1)NC1CC1
MEASUREMENT TARGET: A549-GM130-SQSTM1
RESULT: ≤ 0.3 µM

COMPOUND: CC(C)(C)c1cnc(CSc2cnc(NC(=O)C3CCNCC3)s2)o1
MEASUREMENT TARGET: A549-GM130-SQSTM1
RESULT: ≤ 0.3 µM

COMPOUND: CC1CNCCN1S(=O)(=O)c1cccc2cnccc12 (stereo not drawn) [H-7 dihydrochloride]
MEASUREMENT TARGET: A549-GM130-SQSTM1
RESULT: 9 µM

COMPOUND: Cn1cc(CCn2cnc(-c3cnn(C)c3)c2-c2ccc(C#N)cc2)cn1
MEASUREMENT TARGET: A549-GM130-SQSTM1
RESULT: 9 µM

COMPOUND: CC#CC(=O)N1CCC[C@H]1c1nc(-c2ccc(C(=O)Nc3ccccn3)cc2)c2c(N)nccn12
MEASUREMENT TARGET: A549-GM130-SQSTM1
RESULT: 9 µM

* * *

- Tested on: A549-TUBA1B-RELA
- PROTOCOL SUMMARY: lowest phenotypically active concentration; higher = less potent
- TEST PARAMETERS: treatment time: 24 h
Where a name gives a salt, the structure may show the parent alone.
ENDPOINT NAME: lowest phenotypically active concentration

COMPOUND: O=c1cc(-c2ccccc2)oc2c(O)c(O)ccc12 [7,8-Dihydroxyflavone]
RESULT: 9 µM
--
COMPOUND: CN1[C@@H]2CC[C@H]1C[C@@H](OC(c1ccccc1)c1ccccc1)C2 [benztropine]
RESULT: 9 µM
--
COMPOUND: N#Cc1cccc(-c2c[nH]c3ncnc(N4CCOCC4)c23)c1
RESULT: 9 µM
--
COMPOUND: O=C([C@@H](Cc1cccc(C(F)(F)F)c1)NS(=O)(=O)c1cc(F)c2c(c1)CCNC2)N1CCCC1 [(R)-PFI 2 hydrochloride]
RESULT: 9 µM
--
COMPOUND: O=C(CCCCCN1C(=O)c2cccc3cccc(c23)C1=O)NO [Scriptaid]
RESULT: ≤ 0.3 µM

* * *

- System: A549-CANX-COX4
- PROTOCOL SUMMARY: phenotypically active (imaging signature differs from DMSO and reproducible) at any of 0.3-9 uM (binary (1 = active, 0 = inactive)); higher = active
- TEST PARAMETERS: treatment time: 24 h
Where a name gives a salt, the structure may show the parent alone.
Classes used: T = active, F = inactive

MOLECULE: O=C(NOC[C@H](O)CO)c1ccc(F)c(F)c1Nc1ccc(I)cc1F
MEASUREMENT TARGET: A549-CANX-COX4
CATEGORY: T
--
MOLECULE: CN([C@H]1c2cc(OCCCC(F)(F)F)ccc2OC(C)(C)[C@@H]1O)S(C)(=O)=O
MEASUREMENT TARGET: A549-CANX-COX4
CATEGORY: F
--
MOLECULE: COC(=O)C(Cc1ccc(OCCn2c(=O)sc3cc(C(=O)c4ccccc4)ccc32)cc1)C(=O)OC
MEASUREMENT TARGET: A549-CANX-COX4
CATEGORY: F
--
MOLECULE: COc1ccccc1OCC(O)COC(N)=O (stereo not drawn)
MEASUREMENT TARGET: A549-CANX-COX4
CATEGORY: F
--
MOLECULE: COc1ccc(CCN(C)CCCN2CCc3cc(OC)c(OC)cc3CC2=O)cc1OC
MEASUREMENT TARGET: A549-CANX-COX4
CATEGORY: F
--
MOLECULE: O=C(Nc1ccccc1)N1CCC(Cc2cnc3ccccc3c2)CC1
MEASUREMENT TARGET: A549-CANX-COX4
CATEGORY: F
--
MOLECULE: CNC(=O)c1c(-c2ccc(F)cc2)oc2cc(N(CCO)S(C)(=O)=O)c(C3CC3)cc12
MEASUREMENT TARGET: A549-CANX-COX4
CATEGORY: F
--
MOLECULE: CCCCCCC(=O)OC1CC(C)(C)NC(C)(C)C1 [TMPH hydrochloride]
MEASUREMENT TARGET: A549-CANX-COX4
CATEGORY: F
--
MOLECULE: Cc1cc(F)c(Nc2ncnc3cc(OCc4ccccc4)ccc23)cc1O
MEASUREMENT TARGET: A549-CANX-COX4
CATEGORY: T
--
MOLECULE: CC1=NN(c2ccc(C(=O)O)cc2)C(=O)/C1=C\c1ccc(-c2cc(C)c(C)cc2[N+](=O)[O-])o1
MEASUREMENT TARGET: A549-CANX-COX4
CATEGORY: F
--
MOLECULE: Cc1ccc(-n2sc3ccccc3c2=O)cc1
MEASUREMENT TARGET: A549-CANX-COX4
CATEGORY: F
--
MOLECULE: N#C/C(=C/c1ccc(-c2cc(Cl)ccc2Cl)o1)C(=O)Nc1cccc2ncccc12
MEASUREMENT TARGET: A549-CANX-COX4
CATEGORY: F
--
MOLECULE: CC(C)Cn1c(=O)n(C)c(=O)c2[nH]cnc21
MEASUREMENT TARGET: A549-CANX-COX4
CATEGORY: F
--
MOLECULE: CN(C)CCOC(c1ccccc1)c1ccccc1 [diphenhydramine]
MEASUREMENT TARGET: A549-CANX-COX4
CATEGORY: F
--
MOLECULE: O=c1c(-c2ccc(O)cc2)coc2cc(O[C@@H]3O[C@H](CO)[C@@H](O)[C@H](O)[C@H]3O)cc(O)c12
MEASUREMENT TARGET: A549-CANX-COX4
CATEGORY: T
--
MOLECULE: O=C(O)CCCC[C@@H]1SC[C@@H]2NC(=O)N[C@@H]21
MEASUREMENT TARGET: A549-CANX-COX4
CATEGORY: F
--
MOLECULE: COCc1c(C(C)C)nc(C(C)C)c(/C=C/[C@@H](O)C[C@@H](O)CC(=O)O)c1-c1ccc(F)cc1
MEASUREMENT TARGET: A549-CANX-COX4
CATEGORY: T
--
MOLECULE: O=C(Nc1cccc(Cl)c1)Nc1ncc(CCNc2ncnc3ccsc23)s1 [SNS 314 mesylate]
MEASUREMENT TARGET: A549-CANX-COX4
CATEGORY: T
--
MOLECULE: CCN1/C(=C/C(C)=O)Sc2ccc(O)cc21
MEASUREMENT TARGET: A549-CANX-COX4
CATEGORY: F
--
MOLECULE: COC(=O)c1c(C)cc(OC(=O)c2c(C)cc(O)c(C=O)c2O)c(C)c1O
MEASUREMENT TARGET: A549-CANX-COX4
CATEGORY: F
--
MOLECULE: Cn1cccc1/C=C1\C(=O)NC(=O)c2ccccc21
MEASUREMENT TARGET: A549-CANX-COX4
CATEGORY: F
--
MOLECULE: NC(=O)c1sc2c([N+](=O)[O-])cc(C(F)(F)F)cc2[n+]1[O-]
MEASUREMENT TARGET: A549-CANX-COX4
CATEGORY: F
--
MOLECULE: Cc1cc(O)cc2c1C(=O)Oc1cc3c(c(O)c1O2)C(=O)OC3
MEASUREMENT TARGET: A549-CANX-COX4
CATEGORY: F
--
MOLECULE: CC(C)C(=O)c1c(C(C)C)nn2ccccc12
MEASUREMENT TARGET: A549-CANX-COX4
CATEGORY: F
--
MOLECULE: O=c1cc(-c2ccccc2)oc2c(O)c(O)ccc12 [7,8-Dihydroxyflavone]
MEASUREMENT TARGET: A549-CANX-COX4
CATEGORY: T
--
MOLECULE: CC1(COc2ccc(CC3SC(=O)NC3=O)cc2)CCCCC1 (stereo not drawn)
MEASUREMENT TARGET: A549-CANX-COX4
CATEGORY: F
--
MOLECULE: CN(C)CCCN1c2ccccc2Sc2ccc(Cl)cc21
MEASUREMENT TARGET: A549-CANX-COX4
CATEGORY: T
--
MOLECULE: O=c1[nH]cc(F)c(=O)[nH]1
MEASUREMENT TARGET: A549-CANX-COX4
CATEGORY: T
--
MOLECULE: CC(C)(C(=O)O)c1ccc(C(O)CCCN2CCC(C(O)(c3ccccc3)c3ccccc3)CC2)cc1 (stereo not drawn) [fexofenadine]
MEASUREMENT TARGET: A549-CANX-COX4
CATEGORY: F
--
MOLECULE: Cc1noc(C)c1Cn1cc(C#N)c2cc(Oc3ccc(NC(=O)[C@@H]4CCCN4)cc3)ccc21
MEASUREMENT TARGET: A549-CANX-COX4
CATEGORY: F
--
MOLECULE: O=C1NCCCC1C(=O)NCCc1c[nH]c2ccc(O)cc12 (stereo not drawn)
MEASUREMENT TARGET: A549-CANX-COX4
CATEGORY: F
--
MOLECULE: O=S(=O)(N[C@H](CO)C(C(F)(F)F)C(F)(F)F)c1ccc(Cl)s1
MEASUREMENT TARGET: A549-CANX-COX4
CATEGORY: F
--
MOLECULE: CO[C@H]1C=CO[C@@]2(C)Oc3c(C)c(O)c4c(O)c(c(/C=N/N5CCN(C)CC5)c(O)c4c3C2=O)NC(=O)C(C)=CC=C[C@H](C)[C@H](O)[C@@H](C)[C@@H](O)[C@@H](C)[C@H](OC(C)=O)[C@@H]1C
MEASUREMENT TARGET: A549-CANX-COX4
CATEGORY: F
--
MOLECULE: CCOC(=O)CCNc1cc(N2CCc3ccccc3CC2)nc(-c2cccnc2)n1
MEASUREMENT TARGET: A549-CANX-COX4
CATEGORY: F
--
MOLECULE: COc1ccc(C(=O)C2CCN(CC(=O)N(Cc3nc4c(c(=O)[nH]3)COCC4)CC3CC3)CC2)cc1
MEASUREMENT TARGET: A549-CANX-COX4
CATEGORY: F
--
MOLECULE: CN(C)C(=N)NC(=N)N [Metformin hydrochloride]
MEASUREMENT TARGET: A549-CANX-COX4
CATEGORY: F
--
MOLECULE: CCN(CC)CCOC(=O)C1(C2CCCCC2)CCCCC1
MEASUREMENT TARGET: A549-CANX-COX4
CATEGORY: F
--
MOLECULE: CNS(=O)(=O)CCc1ccc2[nH]cc(C3CCN(C)CC3)c2c1
MEASUREMENT TARGET: A549-CANX-COX4
CATEGORY: F
